# Method: BHET released, HPLC; higher = more BHET released; extreme values may be limits of the assay
# Condition description: PET substrate: aFilm; 60 °C; pH 4.5; 24 h
Measurement name: BHET released
Answer with the number, then the unit.

In: Using the record for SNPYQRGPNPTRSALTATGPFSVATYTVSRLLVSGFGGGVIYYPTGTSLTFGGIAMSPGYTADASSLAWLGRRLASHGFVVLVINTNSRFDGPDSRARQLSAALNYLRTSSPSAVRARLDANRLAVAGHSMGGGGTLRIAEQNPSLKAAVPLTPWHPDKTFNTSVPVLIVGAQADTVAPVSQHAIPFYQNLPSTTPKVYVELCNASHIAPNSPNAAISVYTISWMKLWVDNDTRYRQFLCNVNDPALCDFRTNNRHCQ [LCC-ICCG I6M] , report its BHET released.
Out: 0 mM

###

# Method: PET hydrolysis product formed (TPA+MHET+BHET, UV-Vis) per mg enzyme (mmol/mg enzyme); higher = more PET depolymerisation activity; extreme values may be limits of the assay
# Condition description: PET substrate: aFilm; 60 °C; pH 5.5; 24 h
Measurement name: PET hydrolysis product formed
Number, no unit, nothing else.

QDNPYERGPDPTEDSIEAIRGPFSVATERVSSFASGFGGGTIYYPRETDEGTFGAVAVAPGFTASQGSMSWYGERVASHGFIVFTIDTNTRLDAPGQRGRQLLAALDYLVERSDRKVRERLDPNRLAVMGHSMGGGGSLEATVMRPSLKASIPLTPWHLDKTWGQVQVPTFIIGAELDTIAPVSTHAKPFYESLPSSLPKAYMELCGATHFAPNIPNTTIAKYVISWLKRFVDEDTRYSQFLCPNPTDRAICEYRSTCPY [Cut190*SS] ... 0

Okay, now this sequence:
In: Using the record for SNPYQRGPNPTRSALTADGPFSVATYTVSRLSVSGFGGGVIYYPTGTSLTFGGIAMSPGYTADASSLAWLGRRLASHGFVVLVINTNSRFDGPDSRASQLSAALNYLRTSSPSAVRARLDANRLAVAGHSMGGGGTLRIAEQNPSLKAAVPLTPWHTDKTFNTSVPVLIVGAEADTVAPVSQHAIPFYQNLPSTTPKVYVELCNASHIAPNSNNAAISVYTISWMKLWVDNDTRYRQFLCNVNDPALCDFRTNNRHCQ [LCC-ICCG] , report its PET hydrolysis product formed.
Out: 0.126

###

# Method: BHET released, HPLC; higher = more BHET released; extreme values may be limits of the assay
# Condition description: PET substrate: cryPow; 70 °C; pH 6.5; 24 h
sequences and their reported BHET released
The answer is to be given in mM; state only the numeric part.

Some solved entries appear below for comparison.
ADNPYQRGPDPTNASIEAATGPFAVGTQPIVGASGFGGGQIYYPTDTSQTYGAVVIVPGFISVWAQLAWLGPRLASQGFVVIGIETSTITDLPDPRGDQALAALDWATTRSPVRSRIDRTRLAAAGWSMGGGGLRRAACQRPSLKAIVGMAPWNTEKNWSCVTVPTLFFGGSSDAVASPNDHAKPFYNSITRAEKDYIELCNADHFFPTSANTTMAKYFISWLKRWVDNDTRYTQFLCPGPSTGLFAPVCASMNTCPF [CaPETaseM9] ... 0
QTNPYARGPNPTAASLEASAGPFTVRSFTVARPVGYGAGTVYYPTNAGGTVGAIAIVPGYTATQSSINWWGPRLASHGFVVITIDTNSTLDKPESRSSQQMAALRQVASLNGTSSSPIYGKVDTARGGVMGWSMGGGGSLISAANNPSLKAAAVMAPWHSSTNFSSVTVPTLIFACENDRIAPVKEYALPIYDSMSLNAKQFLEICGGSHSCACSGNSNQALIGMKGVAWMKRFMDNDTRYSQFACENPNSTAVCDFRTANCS [HotPETase] ... 0.00798

In: Using the record for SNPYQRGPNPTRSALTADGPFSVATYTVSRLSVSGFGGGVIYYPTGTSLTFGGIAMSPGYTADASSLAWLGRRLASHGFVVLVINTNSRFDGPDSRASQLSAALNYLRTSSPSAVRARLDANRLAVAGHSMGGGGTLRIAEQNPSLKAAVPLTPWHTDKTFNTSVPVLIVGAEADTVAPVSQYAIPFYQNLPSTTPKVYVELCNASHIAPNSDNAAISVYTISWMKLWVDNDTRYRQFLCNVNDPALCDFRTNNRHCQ [LCC-A2] , report its BHET released.
Out: 0

In: Using the record for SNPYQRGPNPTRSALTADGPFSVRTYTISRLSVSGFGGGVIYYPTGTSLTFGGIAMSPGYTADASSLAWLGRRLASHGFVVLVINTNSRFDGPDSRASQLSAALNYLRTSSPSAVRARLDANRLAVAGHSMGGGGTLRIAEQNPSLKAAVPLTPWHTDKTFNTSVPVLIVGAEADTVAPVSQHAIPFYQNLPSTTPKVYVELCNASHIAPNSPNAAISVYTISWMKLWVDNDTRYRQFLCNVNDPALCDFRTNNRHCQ [LCC-ICCG RIP] , report its BHET released.
Out: 0
